target: Heat shock protein HSP 90-alpha (Homo sapiens, UniProt P07900); assay: Inhibition of FITC-geldanamycin binding to recombinant human full-length C-terminal His-tagged HSP90alpha […] (1 to 732 residues) expressed in Escherichia coli after 1 hr by fluorescence polarization assay
reported.property: pIC50
Here pIC50 is given on a logarithmic scale as minus log10 of the concentration in mol/L.

# count of solved cases: 2
[[record]]
line_notation = "COc1cc(CC(=O)c2ccc3c(c2OC)CCC(C)(C)O3)cc(OC)c1OC"
data_value = 6.55

[[record]]
line_notation = "COc1cc(CC(=O)c2ccc3c(c2O)C=CC(C)(C)O3)cc(OC)c1OC"
data_value = 6.37


Attention now shifts to the item below.
QUERY: Requested read-out: pIC50. Entry: "COc1cc(CC(=O)c2ccc3c(c2OC)C=CC(C)(C)O3)cc(OC)c1OC"
RESULT: 6.20

====

In this section we review reported inhibition of growth at 10 µM values for a set of compounds.
tested on: NCI-H1299; experiment: Antiproliferative activity against human NCI-H1299 cells assessed as inhibition of cell growth at 10 uM after 72 hrs by MTT assay relative to control; type: functional; settings: NCI-H1299, 72 h, read-out: GI
Your answer should be a plain number; it is taken to be in %.

[[record]]
compound = "COc1cc(CC(=O)c2ccc3c(c2OC)CCC(C)(C)O3)cc(OC)c1OC"
reported_property = "inhibition of growth at 10 µM"
unit_text = "%"
data_value = 67.5


QUERY: Given the entry "COc1cc(CC(=O)c2ccc3c(c2OC)C=CC(C)(C)O3)cc(OC)c1OC" , report its measured inhibition of growth at 10 µM.
RESULT: 58.3

QUERY: And what about the compound "COc1ccc(CCC(=O)c2ccc3c(c2O)C=CC(C)(C)O3)cc1OC" ?
RESULT: 30.1

QUERY: Now consider "COc1ccc(CC(=O)c2ccc3c(c2OC(C)=O)C=CC(C)(C)O3)cc1OC" and answer again.
RESULT: 19.5

QUERY: # iterate: COc1ccc(CC(O)c2ccc3c(c2OC)C=CC(C)(C)O3)cc1OC (stereo not given)
RESULT: 19.8

====

Parameter: inhibition of growth at 0.1 µM. Scope: all listed entries.
test system: NCI-H1299; assay: Antiproliferative activity against human NCI-H1299 cells assessed as inhibition of cell growth at 0.1 uM after 72 hrs by MTT assay relative to control; type: functional; settings: NCI-H1299, 72 h, read-out: GI
Output spec: scalar in %, unitless text.

QUERY: Which inhibition of growth at 0.1 µM value belongs to "CC1(C)C=Cc2c(ccc(C(=O)Cc3ccccc3)c2O)O1" ?
RESULT: 3.9

QUERY: What do we get for "COc1c(C(=O)Cc2ccccc2)ccc2c1C=CC(C)(C)O2" ?
RESULT: 5.6

====

test system: NCI-H1299; assay: Antiproliferative activity against human NCI-H1299 cells assessed as inhibition of cell growth at 0.1 uM after 72 hrs by MTT assay relative to control; type: functional; details: NCI-H1299, 72 h, read-out: GI
If the reported inhibition of growth at 0.1 µM equals or exceeds 6%, assign class 1. If not, assign class 0.

The examples below pair each entry with its known result.
[[record]]
compound = "COc1cc(CC(=O)c2ccc3c(c2OC)CCC(C)(C)O3)cc(OC)c1OC"
assay_system = "NCI-H1299"
group = "class 1"

[[record]]
compound = "COc1cc(CC(=O)c2ccc3c(c2O)C=CC(C)(C)O3)cc(OC)c1OC"
assay_system = "NCI-H1299"
group = "class 1"

[[record]]
compound = "CC1(C)C=Cc2c(ccc(C(=O)Cc3ccc(Cl)c(Cl)c3)c2O)O1"
assay_system = "NCI-H1299"
group = "class 1"

[[record]]
compound = "COc1ccc(CC(O)c2ccc3c(c2OC)C=CC(C)(C)O3)cc1OC (stereo not given)"
assay_system = "NCI-H1299"
group = "class 1"

[[record]]
compound = "COc1c(C(=O)Cc2ccc3c(c2)OCCO3)ccc2c1C=CC(C)(C)O2"
assay_system = "NCI-H1299"
group = "class 0"


QUERY: State whether the measured inhibition of growth at 0.1 µM reaches 6%, counting equality as reaching it, for "COc1ccc(/C=C/C(=O)c2ccc3c(c2O)C=CC(C)(C)O3)cc1OC"
RESULT: class 0

QUERY: Thanks! And "COc1ccc(CC(=O)c2ccc3c(c2OC)CCC(C)(C)O3)cc1OC" ?
RESULT: class 1

QUERY: Subsequent entry: "COc1ccc(CCC(=O)c2ccc3c(c2O)C=CC(C)(C)O3)cc1OC"
RESULT: class 0

QUERY: How about this compound: "COc1cc(CC(=O)c2ccc3c(c2OC)C=CC(C)(C)O3)cc(OC)c1"
RESULT: class 1
